From: paper PMC11107207

molecular target: T1, APCDD1 bait fused to the C terminus of Fc (mouse, UniProt Q3U128 27-492); assay: SPR; Biacore, single-cycle kinetics/affinity, five-point dose response; bait-Fc on a proteinG chip; CC4-MBP in the mobile phase; done at Cayman Chemical; details: both partners purified
T1 construct: mouse APCDD1, entire extracellular domain, fused to the C terminus of Fc; secreted with the mouse FZD8 signal peptide; also called Fc-bait; source: HEK293T, transiently transfected, serum-free conditioned medium; captured on proteinG; not shown: Fc (human IgG1), N-terminal, kept
T1 sequence (Q3U128 27-492): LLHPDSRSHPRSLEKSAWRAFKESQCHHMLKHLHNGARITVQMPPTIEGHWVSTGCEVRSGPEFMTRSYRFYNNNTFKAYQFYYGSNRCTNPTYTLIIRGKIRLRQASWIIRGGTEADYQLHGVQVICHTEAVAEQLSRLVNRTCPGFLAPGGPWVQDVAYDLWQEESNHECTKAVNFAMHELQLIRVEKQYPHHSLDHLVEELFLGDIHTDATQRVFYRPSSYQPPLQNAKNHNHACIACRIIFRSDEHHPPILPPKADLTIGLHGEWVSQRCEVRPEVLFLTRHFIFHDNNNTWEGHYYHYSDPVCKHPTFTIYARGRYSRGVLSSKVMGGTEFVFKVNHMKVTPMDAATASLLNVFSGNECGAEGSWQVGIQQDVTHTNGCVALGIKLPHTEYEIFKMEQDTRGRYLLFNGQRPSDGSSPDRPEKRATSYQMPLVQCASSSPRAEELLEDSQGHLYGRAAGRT
pKd: −log10 of the molar value.
parameter_measured: pKd

For the binder WT CC4-MBP (domain or fragment, mouse, mouse RECK, CC domain 4 (CC4), a 4-helix bundle of 65 amino acids; also called RECK(CC4); source: E. coli SHuffle, purified (Ni-NTA)) PMRNPTDSLYCCDRAEDHACQNACKRILMSKKTEMEIVDGLIEGCKTQPLPQDPLWQCFLESSQS , what pKd is on record?
< 4.30
